# Experiment notes: Water solubility at different pH values
# Type: physicochemical
# Conditions used: 0.1 M glycine buffer in water, aqueous buffer; water, pH 10, buffer 0.1M Glycine
A collection of compounds and their measured solubility
Please give a number only; it is taken to be in µg/mL.

CCCCCCCCCCCCCCCCCC[S+](C)C.[I-] [ODS-I, octadecyl dimethyl sulfonium iodide, reference compound] :: 30

Next compound, solubility to be filled in.
get_value(item= CCCCCCCCCCCCCCCCCC[S+](C)C.[Cl-] [ODS-Cl, octadecyl dimethyl sulfonium chloride] , readout=solubility) returns 940

---

# Lookup of reported solubility keyed by entry
# Experiment notes: Water solubility at different pH values
# Type: physicochemical
# Conditions used: 0.1 M citrate buffer in water, aqueous buffer; water, pH 4, buffer 0.1M Citrate
Numbers only; they are read as mg/mL.

CCCCCCCCCCCCCCCCCC[S+](C)C.[I-] [ODS-I, octadecyl dimethyl sulfonium iodide, reference compound] :: 0.29

Given item CCCCCCCCCCCCCCCCCC[S+](C)C.[Cl-] [ODS-Cl, octadecyl dimethyl sulfonium chloride] , the value recorded as its solubility is 1.32

---

# Experiment notes: Water solubility at different pH values
# Assay type: physicochemical
# Conditions used: water, pH 2.2, aqueous buffer
Measured endpoint: solubility
Your reply should be a number followed by the unit it is expressed in.

Lookup result for CCCCCCCCCCCCCCCCCC[S+](C)C.[Cl-] [ODS-Cl, octadecyl dimethyl sulfonium chloride] ; measured solubility: 1650 µg/mL

---

# key: entry, value: solubility
# Experiment notes: Water solubility at different pH values
# Type: physicochemical
# Conditions used: 0.1 M carbonate buffer in water, aqueous buffer; water, pH 7, buffer 0.1M Carbonate
# Source text: The results are compiled in the table here below:
Respond with the figure and its unit, in that order.

CCCCCCCCCCCCCCCCCC[S+](C)C.[I-] [ODS-I, octadecyl dimethyl sulfonium iodide, reference compound] :: 80 µg/mL

In the following, a different molecule is considered.
What the record says about CCCCCCCCCCCCCCCCCC[S+](C)C.[Cl-] [ODS-Cl, octadecyl dimethyl sulfonium chloride] : solubility is 280 µg/mL
